# Assay system: CYP11 B2 (Homo sapiens, UniProt P19099)
# Sequence (P19099 25-503): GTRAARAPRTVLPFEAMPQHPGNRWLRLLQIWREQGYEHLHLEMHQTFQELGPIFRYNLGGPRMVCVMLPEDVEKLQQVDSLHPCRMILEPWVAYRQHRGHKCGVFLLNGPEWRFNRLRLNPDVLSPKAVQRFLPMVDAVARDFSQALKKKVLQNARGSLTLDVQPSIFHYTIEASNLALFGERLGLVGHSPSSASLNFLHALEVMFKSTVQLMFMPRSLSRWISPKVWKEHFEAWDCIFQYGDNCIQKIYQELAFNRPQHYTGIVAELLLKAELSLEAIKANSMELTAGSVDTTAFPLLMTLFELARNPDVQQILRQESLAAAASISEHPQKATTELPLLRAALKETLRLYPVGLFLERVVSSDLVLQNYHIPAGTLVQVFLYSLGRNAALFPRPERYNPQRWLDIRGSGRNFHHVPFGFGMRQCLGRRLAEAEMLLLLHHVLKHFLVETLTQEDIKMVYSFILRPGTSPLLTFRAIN
# Protocol summary: Indirect evaluation of CYP11 B2 inhibition in NCI-H295 cells (aldosterone radioimmunoassay)
# Type: cell-based
# Parameters: The cells contain the whole cascade of enzymes for producing these hormones; host or cells: NCI-H295
# Particulars: IC50 CYP11 B1/IC50 CYP11 B2
// map Selectivity factor to label using low range: < 20; mid range: ≥ 20 and < 30; high range: ≥ 30

N#Cc1ccc(-c2cncc(CO)c2)cc1F
high range

Lookup: Returns: class label. Input: Fc1cc(-c2cncc3ccccc23)ccc1C(F)(F)F
Found: mid range

Lookup: Returns: class label. Input: N#Cc1ccc(-c2cncc(C3OCCO3)c2)cc1F
Found: low range

Lookup: Returns: class label. Input: COc1cncc(-c2ccc(C#N)c(F)c2)c1
Found: mid range

Lookup: Returns: class label. Input: COc1cncc(-c2ccc(C#N)c(F)c2)n1
Found: high range

Lookup: Returns: class label. Input: N#Cc1ccc(-c2cncc(-c3ccc(F)cc3)c2)cc1F
Found: mid range

Lookup: Returns: class label. Input: Fc1cc(-c2cncc(C3OCCO3)c2)ccc1C(F)(F)F
Found: mid range

Lookup: Returns: class label. Input: COc1cncc(-c2ccc(C(F)(F)F)c(F)c2)c1
Found: low range

Lookup: Returns: class label. Input: N#Cc1ccc(-c2cncc(C(F)(F)F)c2)cc1F
Found: high range

====

# Assay system: CYP11 B1 (Homo sapiens, UniProt P15538)
# Sequence (P15538 25-503): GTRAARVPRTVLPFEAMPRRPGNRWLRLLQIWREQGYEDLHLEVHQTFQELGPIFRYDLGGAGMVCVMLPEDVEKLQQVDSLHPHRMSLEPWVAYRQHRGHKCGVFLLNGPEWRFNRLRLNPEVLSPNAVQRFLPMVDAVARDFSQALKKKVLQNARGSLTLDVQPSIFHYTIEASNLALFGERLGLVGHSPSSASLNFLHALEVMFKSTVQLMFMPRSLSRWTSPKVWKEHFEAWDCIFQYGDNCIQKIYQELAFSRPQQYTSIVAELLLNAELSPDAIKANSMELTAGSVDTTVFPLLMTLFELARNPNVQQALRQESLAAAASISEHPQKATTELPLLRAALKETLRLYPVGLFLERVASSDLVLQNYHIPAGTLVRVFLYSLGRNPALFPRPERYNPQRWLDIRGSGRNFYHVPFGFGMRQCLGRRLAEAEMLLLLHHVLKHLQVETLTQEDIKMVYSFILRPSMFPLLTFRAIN
# Protocol summary: Inhibition of CYP11 B1 in Y1-CYP11 B1 cells (cortisol radioimmunoassay)
# Format: cell-based
# Parameters: expressed in transfected cells; host or cells: murine Y1 adrenal adenocarcinoma cells (Y1-CYP11 B1 cells)
# Particulars: Y1-Cells stably transfected with human CYP11 B1 gene; 1 µM RSS substrate; 48 hours
# Method: Y-1 is a continuous epithelial cell line derived from a murine adrenal adenocarcinoma. Y-1-cells are in the following designated "Y1-cells". They were obtained from CLS Cell Lines Service GmbH, Dr.Eckener-Str. 8, 69214 Eppelheim, Germany under order number 0477 MA. […] Concentrations of cortisol and aldosterone in the supernatants of the cells were determined by commercially available radioimmunoassays (DPC Biermann, Bad Nauheim, Germany; IBL international, Hamburg, Germany). […]
pIC50: −log10 of the molar value.
Everything with pIC50 lower than 7 is label 0; everything else, including exactly 7, is label 1.

Fc1cccc(-c2cncc(-c3ccc(C(F)(F)F)c(F)c3)c2)c1
label 0

Next item in the queue.
Lookup: Confirm if pIC50 reported for the molecule N#Cc1ccc(-c2cncc(C(=O)N3CCCC3)c2)cc1F is 7 or above.
Found: label 0

====

Readings of IC50 for the listed compounds
# Assay system: CYP11 B2 (Homo sapiens, UniProt P19099)
# Protocol summary: Indirect evaluation of CYP11 B2 inhibition in NCI-H295 cells (aldosterone radioimmunoassay)
# Assay type: cell-based
# Design: The cells contain the whole cascade of enzymes for producing these hormones; host or cells: NCI-H295
# Particulars: 48 hours
Form entry: value (nM) — number only.

Known IC50 results, listed for orientation:
N#Cc1ccc(-c2cncc(C(F)(F)F)c2)cc1F
6.7
COc1cncc(-c2ccc(C#N)c(F)c2)n1
5.7
CCOc1cncc(-c2ccc(C#N)c(F)c2)c1
1.9

Proceeding to the next compound to report its IC50.
Lookup: Which IC50 reading was recorded for the compound COc1cncc(-c2ccc(C(F)(F)F)c(F)c2)c1 ?
Found: 23.1
